Reported melting point values follow for various molecules
Quantity kind: melting point

| Molecule | Result |
| --- | --- |
| O=[N+]([O-])c1cccc2c1c([N+](=O)[O-])cc1nc(O)c(O)nc12 | > 300 °C |
| O=C(O)c1cn(C2CC2)c2c(F)c(N3CCN(O)CC3)c(F)cc2c1=O | 223 to 227 °C |
| CNC(=O)N1N=C(c2ccc(N)cc2)c2cc3c(cc2CC1CO)OCO3 (stereo not given) | 136 to 138 °C |
| CCc1[nH]nc(C(=O)NC2CCCC2)c1[N+](=O)[O-] | 156 to 157 °C |
| COC(=O)c1ccc(C(=O)NCC(C)C)c([N+](=O)[O-])c1 | 90 to 91 °C |
| CCCOCCOc1ccc(OCC(O)CNCCNC(N)=O)cc1 (stereo not given) | 115 °C |
| Cn1nc(C(F)(F)F)cc1Oc1cccc(C(=O)NCC(F)(F)F)n1 | 136 °C |
| O=S(=O)(Nc1ncnc(Cl)c1-c1ccc(C(F)(F)F)cc1)c1ccc(Cl)cc1 | 262 to 264 °C |
| CC1(C)C2CCC(C2)C1CCC(O)CCC1C2CCC(C2)C1(C)C (stereo not given) | 55 to 56 °C |
| CCCCc1ncc(/C=C/CC(=O)O)n1Cc1ccccc1Cl | 135 to 137 °C |

---

Entries and their measured melting point follow.

| Compound | melting point |
| --- | --- |
| O=C(Cl)c1sc2ccc(Oc3ccccc3)cc2c1Cl | 117 to 119 °C |
| COc1cccc(C(=O)n2c3c(c4ccccc42)CC(C(=O)O)CC3)c1 (stereo not given) | 197 to 200 °C |
| CCOc1ccccc1OCC(O)CNC(C)=CC(=O)c1ccc(C)nc1 (single isomer, unassigned; (-)) | 108 to 109 °C |
| O=P(O)(c1ccccc1)c1ccc(S(=O)(=O)c2ccccc2)cc1 | 220 to 224 °C |
| Fc1ccc(Cl)cc1-c1nnn[nH]1 | 124 °C |
| O=C(Nc1c(F)cc(F)cc1F)N(Cc1ccc2c(c1)Cc1ccccc1-2)C1CCCCC1 | 162 to 165 °C |
| O=C(O)C1CCN(C(=O)OCC2c3ccccc3-c3ccccc32)CC1 | 187 to 189 °C |
| Cc1ncc(-c2nc3cc4c(cc3[nH]2)NC(=O)C4(C)C)cn1 | > 350 °C |
| CC(Sc1nc(Cl)cc(NCc2ccc(Cl)cc2)n1)C(=O)O (stereo not given) | 133 to 136 °C |
| CCc1nccn1CCCNC(=O)c1ccc(Cl)cc1 | 120 to 122 °C |

---

| Chem smiles | melting point |
| --- | --- |
| O=C(O)CN1CCC(=C2c3ccccc3COc3ccccc32)CC1 | 132 to 135 °C |
| O=c1c2c[nH]c3cccnc3c-2nn1-c1ccccc1 | 314 to 316 °C |
| CC(=O)C(=Cc1cc(O)c(O)c([N+](=O)[O-])c1)c1ccc(C)cc1 | 189 to 194 °C |
| CCOc1cc(OCC)c2ccccc2c1O | 83 to 84 °C |
| Clc1nnc(Cl)c2sccc12 | 260 to 263 °C |
| Cc1cc2c(NCc3ccc4c(c3)OCO4)nc(-n3ccnc3)nc2s1 | 162 °C |
| CCN(CC)C(=O)c1[nH]c2ccccc2c1CN(Cc1cc(C(F)(F)F)cc(C(F)(F)F)c1)c1nnn(C)n1 | 98 °C |
| COC(=O)c1ccc2c(c1)NCc1ccccc1O2 | 125 to 126 °C |
| CC(C)(Oc1ccc(CCC(=O)c2ccc(-c3ccc(C(F)(F)F)cc3)o2)c(Cl)c1Cl)C(=O)O | 85 °C |
| Nc1ccccc1C(=O)C=CC(=O)O | 103 to 107 °C |
